- experimental-system: murine Importin α with the Importin β binding domain (IBB) deleted, Impα(70–529) (murine, UniProt P52293 70-529)
- experiment-description: fluorescence polarisation; competition: serial dilutions of unlabeled peptide into 150 nM Impα(70–529) and 100 nM FITC-labeled FL-NLS peptide in FP buffer; fit to a competitive binding equation; apparent
- experimental-conditions: both partners purified
endpoint-label: Kd (nM)

binder	endpoint-label	unit-of-measure	test-value
SPKGKRKLDLNQEEKKEPEKPPAQLEPEVPKRPKLP (human XRCC1 residues 241-276 with four glutamate substitutions that mimic phosphorylation; also called NLS(T257E/S259E/S266E/S268E)) [NLS-E4: XRCC1(241–276)/(T257E/S259E/S266E/S268E) quadruple variant]	Kd	nM	604
